B1: Intersectin-2, residues 1129 to 1183; numbered along this chain, Q9NZM3 (parent)
chain: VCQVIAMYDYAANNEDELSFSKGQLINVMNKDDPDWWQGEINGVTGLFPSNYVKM

variants of: B1; test: abundance fitness (aPCA) (normalised: wild type 0, dead -1); higher = more abundant; growth selection in yeast, the domain comes from the species named; conditions: Homo sapiens
Assign label 1 to entries whose abundance fitness meets or exceeds -0.2; assign label 0 to the rest.

variant.code: Y8G
category: label 1
--
variant.code: P34T
category: label 1
--
variant.code: L47W
category: label 1
--
variant.code: C2N
category: label 1
--
variant.code: Q3A
category: label 1
--
variant.code: L47P
category: label 0
--
variant.code: F48E
category: label 0
--
variant.code: Q3R
category: label 1
--
variant.code: T45W
category: label 1
--
variant.code: G43L
category: label 1
--
variant.code: C2I
category: label 1
--
variant.code: G43D
category: label 1
--
variant.code: N30F
category: label 1
--
variant.code: S21N
category: label 1
--
variant.code: M55Q
category: label 1
--
variant.code: G43Y
category: label 0
--
variant.code: A12D
category: label 0
--
variant.code: D16F
category: label 1
--
variant.code: L25Q
category: label 1
--
variant.code: S50L
category: label 1
--
variant.code: K54I
category: label 1
--
variant.code: V44P
category: label 0
--
variant.code: Q3M
category: label 1
--
variant.code: G46Y
category: label 0
--
variant.code: D16M
category: label 1
--
variant.code: P49R
category: label 1
--
variant.code: M7G
category: label 1
--
variant.code: G46E
category: label 0
--
variant.code: M7S
category: label 1
--
variant.code: S50Y
category: label 1
--
variant.code: G39V
category: label 0
--
variant.code: E40W
category: label 1
--
variant.code: K31T
category: label 1
--
variant.code: I41C
category: label 1
--
variant.code: E40M
category: label 1
--
variant.code: V53R
category: label 0
--
variant.code: N51Q
category: label 1
--
variant.code: C2Q
category: label 1
--
variant.code: W37A
category: label 0
--
variant.code: L47D
category: label 1
--
variant.code: Q38G
category: label 1
--
variant.code: V1E
category: label 1
--
variant.code: G43T
category: label 1
--
variant.code: N13A
category: label 1
--
variant.code: I5D
category: label 1
--
variant.code: D9G
category: label 1
--
variant.code: N42H
category: label 1
--
variant.code: D16I
category: label 1
--
variant.code: V1M
category: label 1
--
variant.code: S19M
category: label 0
--
variant.code: L18Q
category: label 0
--
variant.code: W36I
category: label 1
--
variant.code: N51L
category: label 1
--
variant.code: A6R
category: label 0
--
variant.code: D35F
category: label 1
--
variant.code: Y8F
category: label 1
--
variant.code: N30A
category: label 1
--
variant.code: L18S
category: label 0
--
variant.code: P49I
category: label 0
--
variant.code: V4G
category: label 1
--
variant.code: N14R
category: label 1
--
variant.code: N13P
category: label 1
--
variant.code: N30Y
category: label 1
--
variant.code: S50D
category: label 0
--
variant.code: F20S
category: label 0
--
variant.code: Y10K
category: label 1
--
variant.code: L18G
category: label 0
--
variant.code: P34V
category: label 1
--
variant.code: W36G
category: label 0
--
variant.code: K22F
category: label 1
--
variant.code: M29Y
category: label 1
--
variant.code: W37M
category: label 0
--
variant.code: A6C
category: label 1
--
variant.code: N13F
category: label 1
--
variant.code: A12E
category: label 1
--
variant.code: S50M
category: label 1
--
variant.code: V28N
category: label 0
--
variant.code: K31Q
category: label 1
--
variant.code: S21K
category: label 1
--
variant.code: P49K
category: label 1
--
variant.code: A6N
category: label 0
--
variant.code: V44I
category: label 1
--
variant.code: E15G
category: label 1
--
variant.code: F20Y
category: label 0
--
variant.code: V28M
category: label 1
--
variant.code: N42L
category: label 1
--
variant.code: A11S
category: label 1
--
variant.code: K54R
category: label 1
--
variant.code: C2L
category: label 0

Data origin: the Human Domainome abundance scans (Beltran et al. 2025)
